- measurement_context: in water, 293.15 K
experimental_endpoint: solubility (mole fraction)
// response body must contain only the number

Find the recorded solubility (mole fraction) belonging to COc1ccc(CC(=O)O)cc1 and report it.
0.0031

----------
- measurement_context: in isopropanol, 283.15 K
experimental_endpoint: solubility (mole fraction)
Just the number, please.

Look at this compound and give its reported solubility (mole fraction). COc1ccc(CC(=O)O)cc1
0.114

----------
- measurement_context: in acetonitrile, 313.15 K
experimental_endpoint: solubility (mole fraction)

Quick one: solubility (mole fraction) for COc1ccc(CC(=O)O)cc1 ?
0.112

----------
- measurement_context: in acetonitrile, 293.15 K
experimental_endpoint: solubility (mole fraction)
The reply should be a number, written without any unit.

Entry COc1ccc(CC(=O)O)cc1 has what solubility (mole fraction)?
0.0587

----------
- measurement_context: in anisole, 303.15 K
experimental_endpoint: solubility (mole fraction)
// response body must contain only the number

Item under review: COc1ccc(CC(=O)O)cc1 . Reported solubility (mole fraction)?
0.0737

----------
- measurement_context: in morpholine, 323.15 K
experimental_endpoint: solubility (mole fraction)
The answer should be a number; do not append a unit.

Given the compound COc1ccc(CC(=O)O)cc1 , what is its reported solubility (mole fraction)?
0.0503

----------
- measurement_context: in water, 323.15 K
experimental_endpoint: solubility (mole fraction)
Please respond with just the number, no unit label.

Data request, read-out solubility (mole fraction), for COc1ccc(CC(=O)O)cc1
0.0105

----------
- measurement_context: in anisole, 313.15 K
experimental_endpoint: solubility (mole fraction)
Answer with the value's number alone.

Name the reported solubility (mole fraction) value associated with the compound COc1ccc(CC(=O)O)cc1
0.0999

----------
- measurement_context: in isopropanol, 293.15 K
experimental_endpoint: solubility (mole fraction)

Would you kindly share the measured solubility (mole fraction) for COc1ccc(CC(=O)O)cc1 ?
0.169

----------
- measurement_context: in toluene, 283.15 K
experimental_endpoint: solubility (mole fraction)

Requested read-out: solubility (mole fraction). Entry: COc1ccc(CC(=O)O)cc1
0.0166

----------
- measurement_context: in acetonitrile, 303.15 K
experimental_endpoint: solubility (mole fraction)
Lab note: record the figure alone, no unit after it.

Recorded solubility (mole fraction) for COc1ccc(CC(=O)O)cc1 , please?
0.0803

----------
- measurement_context: in toluene, 303.15 K
experimental_endpoint: solubility (mole fraction)
Lab note: jot down the number only; don't add units.

Dear colleague, I am looking for the recorded solubility (mole fraction) of the following molecule: COc1ccc(CC(=O)O)cc1
0.0415

----------
- measurement_context: in toluene, 313.15 K
experimental_endpoint: solubility (mole fraction)
Response field accepts a number only; no unit should be typed.

Return reported solubility (mole fraction); argument: COc1ccc(CC(=O)O)cc1
0.0641

----------
- measurement_context: in morpholine, 318.15 K
experimental_endpoint: solubility (mole fraction)
Provide a numeric answer; units are not to be included.

Using the record for COc1ccc(CC(=O)O)cc1 , report its solubility (mole fraction).
0.0459

----------
- measurement_context: in toluene, 298.15 K
experimental_endpoint: solubility (mole fraction)
Number only, no unit.

Returns the measured solubility (mole fraction) for the input compound. Input: COc1ccc(CC(=O)O)cc1
0.0337

----------
- measurement_context: in morpholine, 298.15 K
experimental_endpoint: solubility (mole fraction)

Could you share which solubility (mole fraction) value was measured for COc1ccc(CC(=O)O)cc1 ?
0.0239
